Assay: HUVEC growth inhibition – cell-based, human, primary screen (AID 575);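 note: 100% = median of untreated cell wells with 0.1% DMSO on each plate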
Conditions: HUVEC proliferation, CellTiter-Glo luminescence, 72 h; at 10 µM; stronger effect = lower value
Assay readout: viability (%)
Numbers only, in %.

Previously resolved entries follow.
{"columns": ["Compound smiles", "viability [%]"],
 "data": [
  ["COc1ccc(OC)c(-c2nnc(SCC(=O)NC3CCCCC3)o2)c1", 96.2],
  ["CCN(C#N)c1nc(NC(C)C)nc(NC(C)C)n1", 97.6],
  ["O=C(Nc1cccc(C(F)(F)F)c1)c1cccnc1N1CCCC1", 102],
  ["O=C(O)CN1C(=O)CNC1=O", 99.2],
  ["Cc1cc(-n2c(C)cc(C(=O)CSc3nc4ccccc4c(=O)n3Cc3ccco3)c2C)no1", 92.2],
  ["O=C(O)c1[nH]nc2c1COc1ccccc1-2", 109]
]}

Look up viability for the entries below, preserving their order.
1. CCn1c(SCC(N)=O)nc2c1c(=O)n(C)c(=O)n2C
2. CCOC(=O)c1c(NC(=O)c2cccs2)sc(C)c1C
3. COc1ccc2cc(CN(CCO)C(=O)c3ccccc3F)c(=O)[nH]c2c1
4. COCc1cc(C)c2c(N)c(C#N)sc2n1
5. Cc1ccc2cc(C#N)c(N3CCCC3)nc2c1C
6. COCCCNC(=O)CCc1nc2cccnc2n1Cc1ccc(OC)cc1

Reply:
1: 90; 2: 67.8; 3: 96.9; 4: 91.5; 5: 91.4; 6: 115
